Ref: patent US7595403B2

structure_notation	melting point
O=C(NCCCc1ccccc1)n1sc2ccccc2c1=O	109 to 111 °C
O=C(NCCCCC1CCCCC1)n1sc2ccccc2c1=O	76 to 78 °C
Cc1cccc(C(C)C)c1CNC(=O)n1sc2ccccc2c1=O	102 to 103 °C
CCCNC(=O)n1sc2ccccc2c1=O	90 to 91 °C
CCCCCNC(=O)n1sc2ccccc2c1=O	42 to 44 °C
O=C(NCCc1ccccc1)n1sc2ccccc2c1=O	153 to 155 °C
CCc1cccc(C)c1CNC(=O)n1sc2ccccc2c1=O	102 to 104 °C
CCNC(=O)n1sc2ccccc2c1=O	123 to 124 °C
O=C(NCCCCc1ccccc1)n1sc2ccccc2c1=O	119 to 120 °C
C=CCNC(=O)n1sc2ccccc2c1=O	116 to 119 °C
